# measured_on: HDAC8 (Homo sapiens)
# Sequence (Q9BY41 whole entry): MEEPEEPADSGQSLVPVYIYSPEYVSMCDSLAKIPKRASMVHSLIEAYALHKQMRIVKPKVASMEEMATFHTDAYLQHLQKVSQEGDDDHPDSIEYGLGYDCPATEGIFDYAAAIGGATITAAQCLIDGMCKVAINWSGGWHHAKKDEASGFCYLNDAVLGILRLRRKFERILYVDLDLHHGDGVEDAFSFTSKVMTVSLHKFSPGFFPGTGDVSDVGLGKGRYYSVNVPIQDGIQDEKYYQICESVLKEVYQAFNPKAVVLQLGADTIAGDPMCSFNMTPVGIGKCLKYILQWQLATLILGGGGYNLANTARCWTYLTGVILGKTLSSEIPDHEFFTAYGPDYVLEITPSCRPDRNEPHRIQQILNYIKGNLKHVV
readout_label: IC50 (nM)
# value in nM; strip the unit string

Task: Give IC50 (HDAC8 (Homo sapiens)) of the following compound: `O=C(NO)c1ccc(CNc2nc3cccc(-c4ccc5c(c4)OCO5)n3n2)cc1`
Output: 640

====

# measured_on: HDAC1 (Homo sapiens)
# Sequence (Q13547 whole entry): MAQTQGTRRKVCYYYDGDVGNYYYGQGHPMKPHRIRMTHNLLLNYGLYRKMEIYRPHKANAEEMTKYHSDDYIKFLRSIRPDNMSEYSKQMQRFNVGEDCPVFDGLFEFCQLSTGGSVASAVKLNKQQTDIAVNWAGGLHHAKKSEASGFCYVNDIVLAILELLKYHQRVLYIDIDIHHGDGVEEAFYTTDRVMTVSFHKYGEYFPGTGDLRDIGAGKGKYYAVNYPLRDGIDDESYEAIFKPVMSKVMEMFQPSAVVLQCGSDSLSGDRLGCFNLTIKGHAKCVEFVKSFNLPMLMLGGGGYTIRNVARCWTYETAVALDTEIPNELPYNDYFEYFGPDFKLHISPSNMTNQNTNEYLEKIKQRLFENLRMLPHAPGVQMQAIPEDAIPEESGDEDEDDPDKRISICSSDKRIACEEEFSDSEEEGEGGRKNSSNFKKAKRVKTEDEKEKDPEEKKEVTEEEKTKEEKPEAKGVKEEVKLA
readout_label: IC50 (µM)
# value in µM; strip the unit string

Task: Give IC50 (HDAC1 (Homo sapiens)) of the following compound: `O=C(NO)c1ccc(CNc2nc3cccc(-c4ccc5c(c4)OCO5)n3n2)cc1`
Output: 0.0254

====

# measured_on: HDAC7 (Homo sapiens, UniProt Q8WUI4)
# Sequence (Q8WUI4 1-952): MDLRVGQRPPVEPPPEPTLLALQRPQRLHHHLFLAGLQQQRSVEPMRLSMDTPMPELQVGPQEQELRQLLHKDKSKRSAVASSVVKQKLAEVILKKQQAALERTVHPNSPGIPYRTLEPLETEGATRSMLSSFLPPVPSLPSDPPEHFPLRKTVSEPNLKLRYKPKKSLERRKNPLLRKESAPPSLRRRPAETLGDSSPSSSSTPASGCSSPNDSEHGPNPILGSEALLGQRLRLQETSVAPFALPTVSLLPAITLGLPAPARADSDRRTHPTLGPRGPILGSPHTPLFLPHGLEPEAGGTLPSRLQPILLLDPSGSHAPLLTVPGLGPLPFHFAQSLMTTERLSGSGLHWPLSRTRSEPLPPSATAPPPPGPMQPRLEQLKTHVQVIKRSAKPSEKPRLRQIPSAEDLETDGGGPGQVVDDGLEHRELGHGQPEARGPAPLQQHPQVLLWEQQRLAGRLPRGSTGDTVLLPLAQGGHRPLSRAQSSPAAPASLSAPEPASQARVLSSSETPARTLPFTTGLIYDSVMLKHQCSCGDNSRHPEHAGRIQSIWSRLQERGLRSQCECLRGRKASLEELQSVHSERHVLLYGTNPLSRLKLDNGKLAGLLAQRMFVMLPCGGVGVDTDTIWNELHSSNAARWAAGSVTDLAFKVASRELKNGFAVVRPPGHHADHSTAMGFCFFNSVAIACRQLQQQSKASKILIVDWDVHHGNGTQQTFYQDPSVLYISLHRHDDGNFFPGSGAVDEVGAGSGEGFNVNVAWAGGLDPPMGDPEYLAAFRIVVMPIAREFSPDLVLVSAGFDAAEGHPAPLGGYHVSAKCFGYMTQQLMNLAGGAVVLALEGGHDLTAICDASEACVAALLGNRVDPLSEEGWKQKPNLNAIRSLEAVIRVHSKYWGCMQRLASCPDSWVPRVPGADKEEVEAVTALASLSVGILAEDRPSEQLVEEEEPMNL
readout_label: IC50 (nM)
# value in nM; strip the unit string

Task: Give IC50 (HDAC7 (Homo sapiens, UniProt Q8WUI4)) of the following compound: O=C(NO)c1ccc(CNc2nc3cccc(-c4ccc5c(c4)OCO5)n3n2)cc1 [Compound 19]
Output: 715
